Tested on: Streptococcus pyogenes SSI-9
Protocol Description: Antibacterial activity assay of bead-derived peptides (three concentrations)
Assay type: cell-based
Set-up: key: +++: inhibition by the 640-fold diluted peptide solution; ++: inhibition by the 160-fold diluted solution; +: inhibition by the 40-fold diluted solution; -: no inhibition
Experimental Conditions: S. pyogenes, bead-derived peptide solution, three concentrations
Where a SMILES comes first, the peptide text is derived from it. [ ]: non-standard residue; d: D form. The star is where a group is joined. NHCH2CH2OH = OCCN*; For = O=C*
Metric: antibacterial activity

CC(C)C[C@@H](NC(=O)[C@H](Cc1c[nH]c2ccccc12)NC(=O)[C@H](NC(=O)[C@@H](NC(=O)[C@H](NC(=O)[C@H](C)NC(=O)[C@H](NC(=O)[C@H](C)NC(=O)CNC(=O)[C@@H](NC=O)C(C)C)C(C)C)[C@H](C)O)C(C)C)C(C)C)C(=O)N[C@@H](Cc1c[nH]c2ccccc12)C(=O)N[C@H](CC(C)C)C(=O)N[C@@H](Cc1c[nH]c2ccccc12)C(=O)N[C@@H](C(=O)N[C@@H](Cc1c[nH]c2ccccc12)C(=O)NCCO)C(C)C [compound 8141] (For-VGA[dV]A[dT]V[dV]W[dL]W[dL]W[dV]W-NHCH2CH2OH) : -

====

System: Streptococcus pyogenes SSI-9
Protocol Description: Antibacterial activity assay of bead-derived peptides (three concentrations)
Format: cell-based
Set-up: key: +++: inhibition by the 640-fold diluted peptide solution; ++: inhibition by the 160-fold diluted solution; +: inhibition by the 40-fold diluted solution; -: no inhibition
Experimental Conditions: S. pyogenes, bead-derived peptide solution, three concentrations
Where a SMILES comes first, the peptide text is derived from it. [ ]: non-standard residue; d: D form. The star is where a group is joined. NHCH2CH2OH = OCCN*; For = O=C*
Metric: antibacterial activity

CNC(=O)C[C@@H](NC(=O)[C@H](Cc1c[nH]c2ccccc12)NC(=O)[C@H](NC(=O)[C@H](Cc1c[nH]c2ccccc12)NC(=O)[C@H](NC(=O)[C@H](Cc1c[nH]c2ccccc12)NC(=O)[C@@H](CC(C)C)NC(=O)[C@@H](NC(=O)[C@H](NC(=O)[C@H](C)NC(=O)[C@H](NC(=O)[C@H](C)NC(=O)CNC(=O)[C@@H](NC=O)C(C)C)C(C)C)C(C)C)C(C)C)C(C)C)C(C)C)C(=O)N[C@@H](Cc1c[nH]c2ccccc12)C(=O)NCCO [compound 12691] (For-VGA[dV]A[dV]V[dL]W[dV]W[dV]W[dD](NHMe)W-NHCH2CH2OH) : -
CC(C)C[C@@H](NC(=O)[C@H](C)NC(=O)CNC(=O)[C@@H](NC=O)C(C)C)C(=O)N[C@@H](C)C(=O)N[C@H](CC(C)C)C(=O)N[C@H](C(=O)N[C@@H](C(=O)N[C@@H](Cc1c[nH]c2ccccc12)C(=O)N[C@@H](C(=O)N[C@@H](Cc1c[nH]c2ccccc12)C(=O)N[C@@H](C(=O)N[C@@H](Cc1c[nH]c2ccccc12)C(=O)N[C@H](CC(C)C)C(=O)N[C@@H](Cc1c[nH]c2ccccc12)C(=O)NCCO)[C@H](C)O)C(C)C)C(C)C)C(C)C [compound 6876] (For-VGA[dL]A[dL]V[dV]W[dV]W[dT]W[dL]W-NHCH2CH2OH) : -
CC(C)C[C@@H](NC(=O)[C@H](C)NC(=O)[C@H](NC(=O)[C@H](C)NC(=O)CNC(=O)[C@@H](NC=O)C(C)C)C(C)C)C(=O)N[C@H](C(=O)N[C@H](CC(C)C)C(=O)N[C@@H](Cc1c[nH]c2ccccc12)C(=O)N[C@H](CC(C)C)C(=O)N[C@@H](Cc1c[nH]c2ccccc12)C(=O)N[C@@H](C(=O)N[C@@H](Cc1c[nH]c2ccccc12)C(=O)N[C@H](CC(C)C)C(=O)N[C@@H](Cc1c[nH]c2ccccc12)C(=O)NCCO)[C@H](C)O)C(C)C [compound 4209] (For-VGA[dV]A[dL]V[dL]W[dL]W[dT]W[dL]W-NHCH2CH2OH) : -
CC(C)C[C@@H](NC(=O)[C@H](C)NC(=O)CNC(=O)[C@@H](NC=O)C(C)C)C(=O)N[C@@H](C)C(=O)N[C@@H](C(=O)N[C@H](C(=O)N[C@@H](C(=O)N[C@@H](Cc1c[nH]c2ccccc12)C(=O)N[C@@H](C(=O)N[C@@H](Cc1c[nH]c2ccccc12)C(=O)N[C@@H](C(=O)N[C@@H](Cc1c[nH]c2ccccc12)C(=O)N[C@@H](C(=O)N[C@@H](Cc1c[nH]c2ccccc12)C(=O)NCCO)C(C)C)C(C)C)C(C)C)C(C)C)C(C)C)C(C)C [compound 12092] (For-VGA[dL]A[dV]V[dV]W[dV]W[dV]W[dV]W-NHCH2CH2OH) : +

====

Test system: Streptococcus pyogenes SSI-9
Protocol Description: Antibacterial activity assay of bead-derived peptides (three concentrations)
Format: cell-based
Parameters: key: +++: inhibition by the 640-fold diluted peptide solution; ++: inhibition by the 160-fold diluted solution; +: inhibition by the 40-fold diluted solution; -: no inhibition
Experimental Conditions: S. pyogenes, bead-derived peptide solution, three concentrations
Where a SMILES comes first, the peptide text is derived from it. [ ]: non-standard residue; d: D form. The star is where a group is joined. NHCH2CH2OH = OCCN*; For = O=C*
Metric: antibacterial activity

Use the examples below as a reference point.
CC(C)C[C@@H](NC(=O)[C@H](C)NC(=O)[C@H](NC(=O)[C@H](C)NC(=O)CNC(=O)[C@@H](NC=O)C(C)C)[C@H](C)O)C(=O)N[C@H](C(=O)N[C@@H](C(=O)N[C@@H](Cc1c[nH]c2ccccc12)C(=O)N[C@H](CC(C)C)C(=O)N[C@@H](Cc1c[nH]c2ccccc12)C(=O)N[C@@H](C(=O)N[C@@H](Cc1c[nH]c2ccccc12)C(=O)N[C@H](CC(C)C)C(=O)N[C@@H](Cc1c[nH]c2ccccc12)C(=O)NCCO)C(C)C)C(C)C)C(C)C [compound 10313] (For-VGA[dT]A[dL]V[dV]W[dL]W[dV]W[dL]W-NHCH2CH2OH) : -
CC(C)C[C@@H](NC(=O)[C@H](Cc1c[nH]c2ccccc12)NC(=O)[C@H](NC(=O)[C@H](Cc1c[nH]c2ccccc12)NC(=O)[C@@H](CC(C)C)NC(=O)[C@H](Cc1c[nH]c2ccccc12)NC(=O)[C@H](NC(=O)[C@@H](NC(=O)[C@H](NC(=O)[C@H](C)NC(=O)[C@H](NC(=O)[C@H](C)NC(=O)CNC(=O)[C@@H](NC=O)C(C)C)C(C)C)C(C)C)C(C)C)[C@H](C)O)C(C)C)C(=O)N[C@@H](Cc1c[nH]c2ccccc12)C(=O)NCCO [compound 7702] (For-VGA[dV]A[dV]V[dT]W[dL]W[dV]W[dL]W-NHCH2CH2OH) : -
CC(C)C[C@@H](NC(=O)[C@H](C)NC(=O)CNC(=O)[C@@H](NC=O)C(C)C)C(=O)N[C@@H](C)C(=O)N[C@@H](C(=O)N[C@H](C(=O)N[C@@H](C(=O)N[C@@H](Cc1c[nH]c2ccccc12)C(=O)N[C@H](CC(C)C)C(=O)N[C@@H](Cc1c[nH]c2ccccc12)C(=O)N[C@H](CC(C)C)C(=O)N[C@@H](Cc1c[nH]c2ccccc12)C(=O)N[C@H](CC(C)C)C(=O)N[C@@H](Cc1c[nH]c2ccccc12)C(=O)NCCO)[C@H](C)O)C(C)C)C(C)C [compound 1819] (For-VGA[dL]A[dV]V[dT]W[dL]W[dL]W[dL]W-NHCH2CH2OH) : +
CC(C)C[C@@H](NC(=O)[C@H](Cc1c[nH]c2ccccc12)NC(=O)[C@H](NC(=O)[C@H](Cc1c[nH]c2ccccc12)NC(=O)[C@H](NC(=O)[C@@H](NC(=O)[C@H](NC(=O)[C@H](C)NC(=O)[C@H](NC(=O)[C@H](C)NC(=O)CNC(=O)[C@@H](NC=O)C(C)C)C(C)C)C(C)C)C(C)C)C(C)C)C(C)C)C(=O)N[C@@H](Cc1c[nH]c2ccccc12)C(=O)N[C@@H](C(=O)N[C@@H](Cc1c[nH]c2ccccc12)C(=O)NCCO)C(C)C [compound 9571] (For-VGA[dV]A[dV]V[dV]W[dV]W[dL]W[dV]W-NHCH2CH2OH) : +
CC(C)C[C@@H](NC(=O)[C@H](Cc1c[nH]c2ccccc12)NC(=O)[C@H](NC(=O)[C@@H](NC(=O)[C@H](NC(=O)[C@H](C)NC(=O)[C@H](NC(=O)[C@H](C)NC(=O)CNC(=O)[C@@H](NC=O)C(C)C)C(C)C)C(C)C)C(C)C)C(C)C)C(=O)N[C@@H](Cc1c[nH]c2ccccc12)C(=O)N[C@@H](C(=O)N[C@@H](Cc1c[nH]c2ccccc12)C(=O)N[C@@H](C(=O)N[C@@H](Cc1c[nH]c2ccccc12)C(=O)NCCO)C(C)C)C(C)C [compound 5570] (For-VGA[dV]A[dV]V[dV]W[dL]W[dV]W[dV]W-NHCH2CH2OH) : ++
CC(C)C[C@@H](NC(=O)[C@H](C)NC(=O)CNC(=O)[C@@H](NC=O)C(C)C)C(=O)N[C@@H](C)C(=O)N[C@@H](C(=O)N[C@H](C(=O)N[C@@H](C(=O)N[C@@H](Cc1c[nH]c2ccccc12)C(=O)N[C@H](CC(C)C)C(=O)N[C@@H](Cc1c[nH]c2ccccc12)C(=O)N[C@H](CC(C)C)C(=O)N[C@@H](Cc1c[nH]c2ccccc12)C(=O)N[C@@H](C(=O)N[C@@H](Cc1c[nH]c2ccccc12)C(=O)NCCO)[C@H](C)O)C(C)C)C(C)C)[C@H](C)O [compound 6873] (For-VGA[dL]A[dT]V[dV]W[dL]W[dL]W[dT]W-NHCH2CH2OH) : -
CC(C)C[C@@H](NC(=O)[C@H](C)NC(=O)[C@H](NC(=O)[C@H](C)NC(=O)CNC(=O)[C@@H](NC=O)C(C)C)C(C)C)C(=O)N[C@H](C(=O)N[C@H](CC(C)C)C(=O)N[C@@H](Cc1c[nH]c2ccccc12)C(=O)N[C@@H](C(=O)N[C@@H](Cc1c[nH]c2ccccc12)C(=O)N[C@@H](C(=O)N[C@@H](Cc1c[nH]c2ccccc12)C(=O)N[C@@H](C(=O)N[C@@H](Cc1c[nH]c2ccccc12)C(=O)NCCO)[C@H](C)O)C(C)C)C(C)C)C(C)C [compound 13147] (For-VGA[dV]A[dL]V[dL]W[dV]W[dV]W[dT]W-NHCH2CH2OH) : -

Let us examine a further case.
Enquiry: Tell me reported antibacterial activity for CC(C)C[C@@H](NC(=O)[C@H](C)NC(=O)[C@H](NC(=O)[C@H](C)NC(=O)CNC(=O)[C@@H](NC=O)C(C)C)C(C)C)C(=O)N[C@H](C(=O)N[C@@H](C(=O)N[C@@H](Cc1c[nH]c2ccccc12)C(=O)N[C@H](CC(C)C)C(=O)N[C@@H](Cc1c[nH]c2ccccc12)C(=O)N[C@H](CC(C)C)C(=O)N[C@@H](Cc1c[nH]c2ccccc12)C(=O)N[C@H](CC(C)C)C(=O)N[C@@H](Cc1c[nH]c2ccccc12)C(=O)NCCO)C(C)C)C(C)C [compound 10593] (For-VGA[dV]A[dL]V[dV]W[dL]W[dL]W[dL]W-NHCH2CH2OH) , tested with Streptococcus pyogenes SSI-9.
Return: +
